Experiment: activity coefficient (dimensionless); of the first substance listed, at infinite dilution; xn = mol fraction of the nth substance listed
Conditions: 298.15 K; 101 kPa; Liquid; Chromatography; x1 = 0
Sorting guide: entries reporting activity coefficient beneath 0.8 go in the condition met pile, the rest go in the condition not met pile.

Examples from the recorded data:
>  <COMPOUND>
CC(C)(C)N [2-methyl-2-propanamine] + c1ccccc1

>  <DISCRETE LABEL>
condition not met

$$$$
>  <COMPOUND>
CO [methanol] + Cc1cccnc1

>  <DISCRETE LABEL>
condition not met

$$$$
>  <COMPOUND>
CCCN(CCC)CCC [tripropylamine] + CCCCCCCCCCCCCCCC

>  <DISCRETE LABEL>
condition not met

$$$$
>  <COMPOUND>
CCNCC [diethylamine] + CO

>  <DISCRETE LABEL>
condition met

$$$$

Lab note: confirm whether the reported activity coefficient for this compound is below 0.8, equality not counting. compound: CO [methanol] + CCCCCCN condition met
